Just for reference, patent US20240190889A1 is where these values come from.

- system_name: human GABAA α5β2γ1 receptor (Homo sapiens (Human), UniProt P31644+Q8N1C3)
- assay_method_text: Radioligand binding assay, competition for [3H]RO7239181, γ1-containing GABAA subtypes
- measurement_setup: membranes from HEK293F cells, mean of two determinations
- Experimental: Membrane Preparation and Binding Assay for γ1-containing GABAA Subtypes The affinity of compounds at GABAA γ1 subunit-containing receptors was measured by competition for [^3H]RO7239181 (67.3 Ci/mmol: Roche) binding to membranes from HEK293F cells (ThermoFisher R79007) expressing human (transiently transfected) receptors of composition α5β2γ1, α2β2γ1, α1β2γ1. […]
So basically: is Ki under 2 nM? Then t. Not under? Then f.

Take a look at these entries with their results.
Cc1nnc2n1-c1sc3c(c1C(c1c(F)cccc1F)=N[C@H]2C)C[C@@H](C)C3
t
C[C@@H]1N=C(c2c(F)cccc2Cl)c2c(sc3c2C[C@@H](C(F)F)C3)-n2c(C3CC3)nnc21
f
Cc1nnc2n1-c1sc3c(c1C(c1c(F)cccc1F)=N[C@H]2C)C[C@@H](C(F)F)C3
t

Is Ki of `C[C@@H]1N=C(c2c(F)cccc2F)c2c(sc3c2C[C@@H](C(F)F)C3)-n2c(C3CC3)nnc21` strictly below 2 nM?
t

# check: Ki < 2 nM for `Fc1cccc(F)c1C1=NCc2nnc(-c3cccnn3)n2-c2sc3c(c21)C[C@@H](C(F)F)C3`
f

Does the reported Ki of the following compound sit strictly below 2 nM? `Fc1cccc(F)c1C1=NCc2nnc(C3CC3)n2-c2sc3c(c21)C[C@@H](C(F)F)C3`
f

Lab log: compare recorded Ki with 2 nM; is it strictly lower for `Cc1nnc2n1-c1sc3c(c1C(c1c(F)cccc1Cl)=NC2)C[C@@H](C#N)C3` ?
f

A record lists `C[C@@H]1N=C(c2c(F)cccc2F)c2c(sc3c2C[C@@H](C(F)F)C3)-n2c(CO)cnc21` . Is its Ki below 2 nM?
f
